- tested on: human CYP11B2 (Homo sapiens)
- Construct: expressed in transfected cells; host or cells: V79 cells (Chinese hamster lung-derived fibroblasts, from ECACC through DS Pharma Biomedical)
- Sequence (P19099 25-503): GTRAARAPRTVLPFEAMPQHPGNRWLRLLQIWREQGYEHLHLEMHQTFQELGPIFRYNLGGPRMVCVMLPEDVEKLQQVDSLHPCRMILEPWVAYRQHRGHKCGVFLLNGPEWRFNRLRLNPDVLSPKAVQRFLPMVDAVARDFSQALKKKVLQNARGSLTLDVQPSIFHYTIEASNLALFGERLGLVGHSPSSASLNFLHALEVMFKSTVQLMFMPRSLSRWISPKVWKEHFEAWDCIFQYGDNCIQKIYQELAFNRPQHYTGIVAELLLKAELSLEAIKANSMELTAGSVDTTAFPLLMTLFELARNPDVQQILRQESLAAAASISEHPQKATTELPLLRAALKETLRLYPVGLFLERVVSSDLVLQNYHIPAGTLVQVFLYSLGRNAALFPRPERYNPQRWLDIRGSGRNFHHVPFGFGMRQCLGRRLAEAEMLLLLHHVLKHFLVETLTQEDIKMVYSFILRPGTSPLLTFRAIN
- procedure summary: Aldosterone production inhibition in V79-B2 cells expressing human CYP11B2 (ELISA)
- Type: cell-based
- condition info: mean IC50 cortisol production inhibition divided by mean IC50 aldosterone production inhibition
Assign class by Selectivity factor: not lower than 8 means TRUE; lower than 8 means FALSE.

Observe how each entry below is paired with its result.
                                smiles_text  class
0  Ic1ccc2nc(-c3cncc(Cn4ccnn4)c3)n(C3CC3)c2c1   TRUE
1  FCCCn1c(-c2cncc(Cn3ccnc3)c2)nc2cc(F)c(Cl)cc21   TRUE
2  COc1cc(I)cc2c1nc(-c1cncc(Cn3ccnc3)c1)n2C1CC1   TRUE

Next:
Threshold query (Selectivity factor >= 8) on `Fc1cc2nc(-c3cncc(Cn4ccnc4)c3)n(Cc3ccc(I)cc3)c2cc1Cl`
FALSE
